Substrate: Oc1ccccc1O
assay.summary: purified protein
conditions.used: 0.1 M PBS pH 7.5, 25 °C, O2 co-substrate (air), Fe enzyme, kcat corrected for iron content
Output Satisfied for records whose Km is lower than 70 µM, Not satisfied for records at or above 70 µM.

Here are 4 proteins together with their reported answers.
protein: TuDOG7 (Tetranychus urticae) (protein) ERSIEILNHDATVIDCARYKREANQHKCVITPFTTEGPYFLPDDYERSDITDGYTGVNLNLTLLLTNAKDCSPLSNYYVHIWNANAMGHYSGVKEFNFFDHPTFRPKPINNLRFLRGYQITNEDGLVNFNTIIPGWYFGRCIHIHVEIYDKNTTDGHAVSYIGQLYFNREMPAALKLIDPYSQNNNELTLNDQDIVFALSRGSDTILELIPEGNGYSASYVLSIDPTVKVENSVLPFEDPRNVSFIEH
assigned.category: Not satisfied

protein: TuDOG1 (Tetranychus urticae) (protein, signal peptide removed, N-terminal 6xHis kept, pJExpress 411, E. coli BL21(DE3), codon optimized (ATUM), 25-37 kDa) DVHRRGKFLPHDRTVINCASLNRKAHQHSSVLAPFTTEGPFFLPDDLKRSDITDGQKGIPLELTIKLTNAKDCTPISNFFIHAWQTNATGVYSGIDEDTAPLSGFRPTPVNRDRSLRGYQETDANGEVKFLTILPGWYSGRAIHIHIEVYAKDITDENKITYIGQFYFEHDFPLKLRKIYPYSTNTQRIIFNEQDYYYVHDHGDETTLDLKHNGAKFSSYATVAIDPTVTVHVQ
assigned.category: Satisfied

protein: TuDOG11 (Tetranychus urticae) (protein, signal peptide removed, N-terminal 6xHis kept, pJExpress 411, E. coli BL21(DE3), codon optimized (ATUM), 25-37 kDa) HLQRPGKFLPHDRSIVDCARYKREANQHTCVLAPFTTEGPYFLPDDLERSDITDGQTGVNLDLNLKLTNAKDCSPLSNYFVHVWQANALGHYSGVNELFPVGFRPKPISGERFLRGYQKTNEDGEVNFKTIIPGWYVGRCIHIHVEVYAKNNTDGNAVNYIGQLYFERDIPSSLRLVEPYSTNVNEITLNDSDGVYLLTHGNDTLIDLVPQESGFRTDYIVAIDPDVSIKYDWLDI
assigned.category: Satisfied

protein: TuDOG16 (Tetranychus urticae) (protein, signal peptide removed, N-terminal 6xHis kept, pJExpress 411, E. coli BL21(DE3), codon optimized (ATUM), 25-37 kDa) HSERPGKFLEHDRSIVNCARYKREANQHTCVLAPFATEGPYFLADDLERSDITDGQTGVNLDLNLKLTNAKDCSPLSGYFVHIWNANALGHYSGVQEFNKFPKQTFRPKPIYDTRWLRGYQVTNEDGEVNFKTIVPGWYYGRCLHIHVEVYSKNTTDTNAITYIGQLYFKRELPVQLKLVEPYSSNQNELKFNEQDKVFNGMHGNDTITELVFEENNAKTSFILALDPTVTTLTNGTVVN
assigned.category: Satisfied

Confirm or reject: Km of TuDOG15 (Tetranychus urticae) (protein) DHERPGKYLEHDSTVINCARYKREANQHSCVLAPYAVEGPYFLPDDLERSNLAEDKVGVSLDLAIRLVNSNDCTPLTNMFVHVWHADALGVYSGVPDLAELFVERMRQENKTLPPFWGPEGAYEGRRPGGPGGPGGPGGPGGPGDMEMPGRPTPVNNERFLRGYQVTNEAGEVNFKTIIPGWYTGRSLHIHVEVYSKNTTEPGEVNYIGQIFFKDDLPAELKLIEPYSLNQNILVLNPQDGIYNFAHGEQTKIQLENRETGYFGSMTFGINPNAH lies strictly below 70 µM
Not satisfied
